These entries and their values trace back to patent US20250368616A1.

As shown below, each of these molecules has a reported pIC50 value.
test system: Ba/F3 EGFR Del19/C797S cells; assay: Cell proliferation inhibition assay (Cell Titer-Glo), Ba/F3 EGFR Del19/C797S; assay type: cell-based; conditions: 72 hours, read-out: Ba/F3 EGFR Del19_C797S IC50
# reply with the number alone; pIC50 is -log10 of concentration in mol/L

Here's what some known entries look like.
[[record]]
molecule = "CC(C)c1ccc(N2C[C@H](CS(C)(=O)=O)[C@H]2C)c2cnc(Nc3ccnc(-c4cn(C5COC5)nc4Cl)n3)cc12 [Example 81]"
quantitative_readout = 7.30

[[record]]
molecule = "CC(C)c1ccc(N2C[C@H](CS(C)(=O)=O)[C@H]2C)c2cnc(Nc3ccnc(-c4cn(CCO)nc4C(F)(F)F)n3)cc12 [Example 59]"
quantitative_readout = 7.21

[[record]]
molecule = "CC(C)c1ccc(N2C[C@H](CS(C)(=O)=O)[C@H]2C)c2cnc(Nc3ccnc(-c4cn(C)nc4C(F)(F)F)n3)cc12 [Example 56]"
quantitative_readout = 8.00

[[record]]
molecule = "CC(C)c1ccc(N2C[C@H](CS(C)(=O)=O)[C@H]2C)c2cnc(Nc3ccnc(-c4cncs4)n3)cc12 [Example 54]"
quantitative_readout = 7.49


We now examine a further molecule.
pIC50 for CC(C)c1ccc(N2CC(N(C)S(C)(=O)=O)C2)c2cnc(Nc3ccnc(-c4cn(CCO)nc4Cl)n3)cc12 [Example 79] ?
7.96
